Test system: ATP;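 further: ATP exposure 15 min at 22 °C before imaging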
procedure text: switch fluorescence ratio, 500 uM ATP over buffer (Cy3 cluster intensity, sum of 5 cycles each) (fold (ratio)); higher = stronger signal-on switching upon ATP binding; sequences stand for … in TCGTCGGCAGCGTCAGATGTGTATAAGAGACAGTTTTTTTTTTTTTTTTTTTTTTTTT…TC
condition: aptamer strand: ATP DNA aptamer (quencher-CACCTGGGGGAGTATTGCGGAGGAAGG + anchor), 100 nM annealed; ATP concentration: 500 uM
quantity measured: switch fluorescence ratio
Answers are plain numbers.

Solved cases (3 shown):
GCTAGGAACT
0.979
AAGTGTCTTG
0.999
GAAGATTTGG
0.981

I need switch fluorescence ratio for every entry listed below, if you could help.
1. CATGATGGAG
2. GCTTTCTGCG
3. TCTAGCCGCG

0.999
1.05
1.02
